Origin of values: patent US20260274955A1

Collected Anti-CD28 Fab (SEQ ID NOs: 202, 203) signal values appear next to each entry.
Target: Anti-CD28 Fab (SEQ ID NOs: 202, 203)
Sequence (VH, as listed by the source, chain 1 of 2): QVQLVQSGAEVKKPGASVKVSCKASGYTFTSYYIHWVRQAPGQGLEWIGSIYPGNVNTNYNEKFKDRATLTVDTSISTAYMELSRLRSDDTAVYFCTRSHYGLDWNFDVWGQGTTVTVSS
Sequence (VL, as listed by the source, chain 2 of 2): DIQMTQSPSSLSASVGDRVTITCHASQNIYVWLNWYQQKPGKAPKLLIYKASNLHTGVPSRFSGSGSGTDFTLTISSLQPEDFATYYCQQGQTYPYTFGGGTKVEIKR
Assay: phage binding ELISA on captured Fab;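 further: clonal phage supernatants added briefly to wells pre-incubated with CD28 antigen or with blocking buffer only, then washed, bound phage read by ELISA using HRP-coupled anti-M13 antibody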
Form field (numeric): enter value without unit.

Worked cases, Anti-CD28 Fab (SEQ ID NOs: 202, 203) signal given:
YCEGHAAVYMHKCL [Phage-846]
0.67
YCDGHIAEYRSKCL [Phage-810]
0.87
YCEGHIEQYMRKCL [Phage-762]
1.01

response.value for YCEGHLGLYMKKCL [Phage-871] (field: Anti-CD28 Fab (SEQ ID NOs: 202, 203) signal) = 0.49
